# maps each entry to its pKd
# tgt: MAGI2_4, Q86UL8
# Sequence (Q86UL8 772-865): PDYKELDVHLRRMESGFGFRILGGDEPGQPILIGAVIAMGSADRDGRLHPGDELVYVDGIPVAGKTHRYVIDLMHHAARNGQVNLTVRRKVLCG
# assay: holdup assay
# Design: key: below the threshold = too weak to quantify, mostly under pKd 3.1 to 4
# setup_conditions: plain residues with an end cap or a label only (N-terminal biotin on a linker: ahx)
Write the value as a bare number.

Examples from the recorded data:
PKMKLNETSF [SHKBP1, Q8TBC3]    3.69
KDECVIATEV [DLL1, O00548]    3.64

Using known records, supply pKd for KEYDDELTFF [USH1C, Q9Y6N9]
3.51

Find the measured pKd of VNENQKEYFF [CNTNAP4, Q9C0A0] and report it.
3.55

Given YNSFLSVTTV [PDZRN3, Q9UPQ7] , respond with its pKd.
4.56
